Target of assay: Flag-tagged full length human DOT1L protein, DOT1L (1-1537) (human) (UniProt Q8TEK3)
Protocol text: SPR; Flag-DOT1L captured on anti-Flag CM5 chip, AF9 as analyte
Observable: pKd
Give bare numbers, as −log10 of the molar value.

Reported pKd for AF9 (497-568), recombinant C-terminal domain of human AF9 (protein) GECDKAYLDELVELHRRLMTLRERHILQQIVNLIEETGHFHITNTTFDFDLCSLDKTTVRKLQSYLETSGTS : what is it?
7.48
